# PROTOCOL_NOTES: Blood plasma levels of compound 1 in mouse after administration into abdominal cavity
# Type: in vivo
# CONDITION_PARAMETERS: intraperitoneal, 3 mg/kg into abdominal cavity, 8 hours, Balb/c mouse, read-out: blood plasma level
ENDPOINT_LABEL: concentration at 8 h

Lookup: So what does the record say about concentration at 8 h for CCCCN1C(=O)[C@@H]([C@H](O)C2CCCCC2)NC(=O)C12CCN(Cc1ccc(Oc3ccc(C(=O)O)cc3)cc1)CC2.Cl [compound 1, hydrochloride] ?
Found: 1 nM

###

# PROTOCOL_NOTES: Blood plasma levels of compound 1 in mouse after administration into abdominal cavity
# Format: in vivo
# CONDITION_PARAMETERS: intraperitoneal, 3 mg/kg into abdominal cavity, 4 hours, Balb/c mouse, read-out: blood plasma level
ENDPOINT_LABEL: concentration at 4 h (nM)
Field format: number, assumed nM, no unit text.

Lookup: So what does the record say about concentration at 4 h for CCCCN1C(=O)[C@@H]([C@H](O)C2CCCCC2)NC(=O)C12CCN(Cc1ccc(Oc3ccc(C(=O)O)cc3)cc1)CC2.Cl [compound 1, hydrochloride] ?
Found: 5

###

# PROTOCOL_NOTES: Blood plasma levels of compound 1 in mouse after administration into abdominal cavity
# Type: in vivo
# CONDITION_PARAMETERS: intraperitoneal, 30 mg/kg into abdominal cavity, 8 hours, Balb/c mouse, read-out: blood plasma level
ENDPOINT_LABEL: concentration at 8 h (nM)
Field format: number, assumed nM, no unit text.

Lookup: So what does the record say about concentration at 8 h for CCCCN1C(=O)[C@@H]([C@H](O)C2CCCCC2)NC(=O)C12CCN(Cc1ccc(Oc3ccc(C(=O)O)cc3)cc1)CC2.Cl [compound 1, hydrochloride] ?
Found: 4

Source of measurements: patent US20060251651A1
